Biological target: human orexin-2 receptor (Homo sapiens (Human))
Sequence (O43614 whole entry): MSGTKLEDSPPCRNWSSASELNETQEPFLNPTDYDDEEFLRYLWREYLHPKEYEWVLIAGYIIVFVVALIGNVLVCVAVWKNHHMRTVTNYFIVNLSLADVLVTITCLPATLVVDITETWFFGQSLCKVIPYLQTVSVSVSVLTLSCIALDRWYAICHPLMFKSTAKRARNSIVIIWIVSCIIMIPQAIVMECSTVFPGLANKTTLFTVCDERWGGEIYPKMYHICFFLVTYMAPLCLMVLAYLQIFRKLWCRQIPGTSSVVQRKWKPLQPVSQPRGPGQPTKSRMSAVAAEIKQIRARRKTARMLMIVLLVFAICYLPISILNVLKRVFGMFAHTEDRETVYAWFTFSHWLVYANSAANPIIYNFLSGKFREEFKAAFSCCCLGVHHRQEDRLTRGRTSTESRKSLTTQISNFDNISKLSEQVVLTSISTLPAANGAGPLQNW
Test: radioligand binding assay, hOX2R BIND
Conditions: membranes from CHO cells expressing OX2 receptor; read-out: hOX2R BIND hKi
assayMetric: pKi
Numbers only, as −log10 of the molar value.

Example cases with answers are listed next.
COC(=O)c1c(C#N)ccnc1O[C@@H]1CC[C@@H](C)N(C(=O)c2ccccc2C2CCC2)C1 | 9.59
COC(=O)c1c(C#N)ccnc1O[C@@H]1CC[C@@H](C)N(C(=O)c2cc(F)ccc2-c2ncccn2)C1 | 9.33
COC(=O)c1c(C#N)ccnc1O[C@@H]1CC[C@@H](C)N(C(=O)c2c(F)cccc2-c2ncccn2)C1 | 9.38
COC(=O)c1c(C#N)ccnc1O[C@@H]1CC[C@@H](C)N(C(=O)c2ccc(F)cc2-c2ncccn2)C1 | 9.17
COC(=O)c1c(C#N)ccnc1O[C@@H]1CC[C@@H](C)N(C(=O)c2c(F)cccc2-c2noc(C)n2)C1 | 9.00

# per-item lookup of pKi; items listed below
1. COC(=O)c1c(C#N)ccnc1O[C@@H]1CC[C@@H](C)N(C(=O)c2ccc(F)cc2-c2noc(C)n2)C1
2. COC(=O)c1c(C#N)ccnc1O[C@@H]1CCC(C)N(C(=O)c2ccccc2-c2ncccn2)C1 (stereo partly drawn)
3. COC(=O)c1c(C#N)ccnc1O[C@@H]1CC[C@@H](C)N(C(=O)c2cccc(C)c2-n2nccn2)C1
4. COC(=O)c1c(C#N)ccnc1O[C@@H]1CC[C@@H](C)N(C(=O)c2ccc(F)cc2-n2nccn2)C1

Reply:
[8.92, 9.27, 9.28, 9.18]
